Molecular target: Platelet-activating factor receptor (Oryctolagus cuniculus)
TEST_READOUT: Ki

input: # get_value(readout= Ki, system= Platelet-activating factor receptor (Oryctolagus cuniculus)) for `O/N=C/Nc1ccc(N2CCOCC2)c(Cl)c1`
output: > 10 µM

###

Sequence of the target: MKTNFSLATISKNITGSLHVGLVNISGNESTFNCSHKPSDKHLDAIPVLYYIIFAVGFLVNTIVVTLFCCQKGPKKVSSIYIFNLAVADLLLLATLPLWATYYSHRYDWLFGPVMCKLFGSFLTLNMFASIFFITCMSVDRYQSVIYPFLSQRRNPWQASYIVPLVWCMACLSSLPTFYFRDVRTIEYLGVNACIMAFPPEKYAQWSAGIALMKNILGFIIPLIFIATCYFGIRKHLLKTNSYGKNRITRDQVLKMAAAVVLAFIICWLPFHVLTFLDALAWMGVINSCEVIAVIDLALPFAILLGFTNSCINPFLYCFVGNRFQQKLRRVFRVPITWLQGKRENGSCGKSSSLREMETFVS
TEST_READOUT: Ki

input: Requested read-out: Ki. Entry: `O/N=C/Nc1ccc(N2CCOCC2)c(Cl)c1`
output: > 10 µM

###

Target: 5-hydroxytryptamine receptor 1B (Rattus norvegicus, UniProt P28564)
Sequence (P28564 whole entry): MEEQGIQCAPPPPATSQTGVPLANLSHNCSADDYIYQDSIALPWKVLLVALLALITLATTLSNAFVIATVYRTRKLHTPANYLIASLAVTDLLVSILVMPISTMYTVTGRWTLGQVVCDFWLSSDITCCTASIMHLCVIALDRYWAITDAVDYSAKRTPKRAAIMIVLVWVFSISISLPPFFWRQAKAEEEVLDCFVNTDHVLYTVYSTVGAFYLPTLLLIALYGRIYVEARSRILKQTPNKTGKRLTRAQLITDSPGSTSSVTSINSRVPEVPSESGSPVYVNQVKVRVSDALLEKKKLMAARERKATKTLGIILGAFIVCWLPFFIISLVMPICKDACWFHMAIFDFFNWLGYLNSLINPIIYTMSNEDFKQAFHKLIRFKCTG
TEST_READOUT: Ki

input: # get_value(readout= Ki, system= 5-hydroxytryptamine receptor 1B (Rattus norvegicus, UniProt P28564)) for `O/N=C/Nc1ccc(N2CCOCC2)c(Cl)c1`
output: > 10 µM

###

Biological target: L-type calcium channel (Rattus norvegicus)
pKi: −log10 of the molar value.
TEST_READOUT: pKi

input: # get_value(readout= pKi, system= L-type calcium channel (Rattus norvegicus)) for `O/N=C/Nc1ccc(N2CCOCC2)c(Cl)c1`
output: < 5.00

###

Target: Prostaglandin G/H synthase 1 (Rattus norvegicus)
Sequence (Q63921 whole entry): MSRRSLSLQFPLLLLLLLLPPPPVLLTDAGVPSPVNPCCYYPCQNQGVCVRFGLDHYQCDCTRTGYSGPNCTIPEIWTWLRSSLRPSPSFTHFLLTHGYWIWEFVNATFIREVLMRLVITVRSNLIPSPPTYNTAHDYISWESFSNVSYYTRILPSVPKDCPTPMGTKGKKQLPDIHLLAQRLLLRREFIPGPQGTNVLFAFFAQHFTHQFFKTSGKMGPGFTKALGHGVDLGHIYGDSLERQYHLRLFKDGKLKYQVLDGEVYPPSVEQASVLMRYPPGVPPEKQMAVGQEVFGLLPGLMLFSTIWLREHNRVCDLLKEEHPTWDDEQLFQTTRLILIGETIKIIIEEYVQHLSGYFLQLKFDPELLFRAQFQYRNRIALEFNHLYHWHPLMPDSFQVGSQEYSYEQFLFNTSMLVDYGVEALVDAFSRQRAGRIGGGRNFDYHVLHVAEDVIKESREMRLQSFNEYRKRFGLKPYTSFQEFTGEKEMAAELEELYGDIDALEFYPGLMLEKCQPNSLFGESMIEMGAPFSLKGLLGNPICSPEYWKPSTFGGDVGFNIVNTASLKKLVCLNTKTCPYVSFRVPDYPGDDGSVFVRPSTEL
pKi: −log10 of the molar value.
TEST_READOUT: pKi

input: # get_value(readout= pKi, system= Prostaglandin G/H synthase 1 (Rattus norvegicus)) for `O/N=C/Nc1ccc(N2CCOCC2)c(Cl)c1`
output: < 5.00

###

Target: Sigma non-opioid intracellular receptor 1 (Rattus norvegicus, UniProt Q9R0C9)
Sequence (Q9R0C9 whole entry): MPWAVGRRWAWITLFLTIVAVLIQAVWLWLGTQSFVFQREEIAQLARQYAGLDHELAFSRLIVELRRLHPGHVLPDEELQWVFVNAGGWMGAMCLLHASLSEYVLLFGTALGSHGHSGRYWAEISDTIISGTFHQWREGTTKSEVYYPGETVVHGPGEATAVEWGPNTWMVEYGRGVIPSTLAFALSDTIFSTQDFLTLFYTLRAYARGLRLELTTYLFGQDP
TEST_READOUT: Ki

input: Requested read-out: Ki. Entry: `O/N=C/Nc1ccc(N2CCOCC2)c(Cl)c1`
output: > 10 µM

###

Target: Prostaglandin G/H synthase 2 (Ovis aries, UniProt P79208)
Sequence (P79208 whole entry): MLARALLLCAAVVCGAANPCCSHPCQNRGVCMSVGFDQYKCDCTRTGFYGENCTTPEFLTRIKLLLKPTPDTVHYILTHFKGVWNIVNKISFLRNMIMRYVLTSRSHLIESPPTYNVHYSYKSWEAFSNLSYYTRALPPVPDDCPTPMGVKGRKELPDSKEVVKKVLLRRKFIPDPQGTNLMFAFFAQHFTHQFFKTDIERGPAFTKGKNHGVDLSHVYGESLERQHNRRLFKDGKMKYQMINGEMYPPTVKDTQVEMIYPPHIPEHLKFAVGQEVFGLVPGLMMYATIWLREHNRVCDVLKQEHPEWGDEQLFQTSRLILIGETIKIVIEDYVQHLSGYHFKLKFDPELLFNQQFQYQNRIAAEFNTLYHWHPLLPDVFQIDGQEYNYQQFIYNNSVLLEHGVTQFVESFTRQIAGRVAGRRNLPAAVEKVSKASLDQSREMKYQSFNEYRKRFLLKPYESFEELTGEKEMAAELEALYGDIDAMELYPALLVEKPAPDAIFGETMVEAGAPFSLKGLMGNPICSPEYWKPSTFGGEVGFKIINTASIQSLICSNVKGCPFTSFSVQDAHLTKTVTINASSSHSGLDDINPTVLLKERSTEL
pKi: −log10 of the molar value.
TEST_READOUT: pKi

input: # get_value(readout= pKi, system= Prostaglandin G/H synthase 2 (Ovis aries, UniProt P79208)) for `O/N=C/Nc1ccc(N2CCOCC2)c(Cl)c1`
output: < 5.00
